Assay: Ratio of drug level in blood to plasma in Wistar rat at 2.5 uM after 5 mins by LC-MS/MS analysis
Type: ADME
QUANTITY: blood plasma ratio at 5 min, 2.5 µM
Enter a number only.

Summary for this molecule, C[C@@H]1CC[C@@]2(OC1)O[C@H]1C[C@H]3[C@@H]4CC=C5C[C@@H](O[C@@H]6O[C@H](CO)[C@@H](O[C@@H]7O[C@@H](C)[C@H](O)[C@@H](O)[C@H]7O)[C@H](O)[C@H]6O[C@@H]6O[C@@H](C)[C@H](O)[C@@H](O)[C@H]6O)CC[C@]5(C)[C@H]4CC[C@]3(C)[C@H]1[C@@H]2C [DIOSCIN] : blood plasma ratio at 5 min, 2.5 µM is 0.771

###

Assay: Drug uptake in Wistar rat liver assessed as hepatic extraction ratio at 2.5 uM after 1 to 60 mins in presence of cyclosporin A
Format: ADME, tissue-based
Conditions: with cyclosporin A, read-out: ERH
QUANTITY: hepatic extraction ratio at 2.5 µM

Summary for this compound, C[C@@H]1CC[C@@]2(OC1)O[C@H]1C[C@H]3[C@@H]4CC=C5C[C@@H](O[C@@H]6O[C@H](CO)[C@@H](O[C@@H]7O[C@@H](C)[C@H](O)[C@@H](O)[C@H]7O)[C@H](O)[C@H]6O[C@@H]6O[C@@H](C)[C@H](O)[C@@H](O)[C@H]6O)CC[C@]5(C)[C@H]4CC[C@]3(C)[C@H]1[C@@H]2C : hepatic extraction ratio at 2.5 µM is 0.074

###

Assay: Drug uptake in Wistar rat liver assessed as hepatic extraction ratio at 2.5 uM after 1 to 60 mins in presence of rifampicin
Format: ADME, tissue-based
Details: with rifampicin, read-out: ERH
QUANTITY: hepatic extraction ratio at 2.5 µM

Summary for this compound, C[C@@H]1CC[C@@]2(OC1)O[C@H]1C[C@H]3[C@@H]4CC=C5C[C@@H](O[C@@H]6O[C@H](CO)[C@@H](O[C@@H]7O[C@@H](C)[C@H](O)[C@@H](O)[C@H]7O)[C@H](O)[C@H]6O[C@@H]6O[C@@H](C)[C@H](O)[C@@H](O)[C@H]6O)CC[C@]5(C)[C@H]4CC[C@]3(C)[C@H]1[C@@H]2C : hepatic extraction ratio at 2.5 µM is 0.082

###

Molecular target: UniProtKB Q9NPD5
Sequence (Q9NPD5 whole entry): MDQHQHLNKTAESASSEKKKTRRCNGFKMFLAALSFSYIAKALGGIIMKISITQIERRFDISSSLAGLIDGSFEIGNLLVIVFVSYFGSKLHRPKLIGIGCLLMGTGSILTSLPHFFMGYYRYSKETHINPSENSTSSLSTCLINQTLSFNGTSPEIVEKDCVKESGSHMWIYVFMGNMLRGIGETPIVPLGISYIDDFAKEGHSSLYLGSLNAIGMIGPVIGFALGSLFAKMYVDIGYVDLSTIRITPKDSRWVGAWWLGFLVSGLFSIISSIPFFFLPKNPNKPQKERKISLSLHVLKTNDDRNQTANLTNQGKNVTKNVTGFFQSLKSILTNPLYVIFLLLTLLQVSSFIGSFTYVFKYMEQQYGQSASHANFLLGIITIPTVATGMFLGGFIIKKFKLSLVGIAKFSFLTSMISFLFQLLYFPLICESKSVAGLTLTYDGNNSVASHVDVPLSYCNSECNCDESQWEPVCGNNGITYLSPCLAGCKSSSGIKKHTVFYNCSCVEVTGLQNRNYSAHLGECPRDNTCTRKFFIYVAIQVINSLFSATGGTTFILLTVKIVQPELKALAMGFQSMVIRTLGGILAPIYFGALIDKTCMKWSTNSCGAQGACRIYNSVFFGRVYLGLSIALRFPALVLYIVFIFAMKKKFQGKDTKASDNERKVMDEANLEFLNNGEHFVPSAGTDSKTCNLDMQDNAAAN
Assay: Activity at OATP1B3 (unknown origin) expressed in HEK293 cells assessed as compound transport
Type: ADME, cell-based
Details: HEK293 cells expressing OATP1B3
QUANTITY: Km

Summary for this molecule, C[C@@H]1CC[C@@]2(OC1)O[C@H]1C[C@H]3[C@@H]4CC=C5C[C@@H](O[C@@H]6O[C@H](CO)[C@@H](O[C@@H]7O[C@@H](C)[C@H](O)[C@@H](O)[C@H]7O)[C@H](O)[C@H]6O[C@@H]6O[C@@H](C)[C@H](O)[C@@H](O)[C@H]6O)CC[C@]5(C)[C@H]4CC[C@]3(C)[C@H]1[C@@H]2C [DIOSCIN] : Km is 2.08 µM

###

System: OATP1B1/MRP2
Experiment: Efflux ratio of permeability from basolateral to apical side to apical to basolateral side in MDCK2 cells expressing OATP1B1/MRP2 (unknown origin) at 1 uM after 30 to 180 mins by LC-MS/MS analysis
Assay type: ADME, cell-based, Canis lupus familiaris, MDCK-II
Details: dog
QUANTITY: efflux ratio at 1 µM
Enter a number only.

Summary for this compound, C[C@]12CC[C@@H]3c4ccc(OS(=O)(=O)O)cc4CC[C@H]3[C@@H]1CCC2=O : efflux ratio at 1 µM is 4.2
